In this section, each of the compounds is paired with its reported relative viability.
Test system: CAL-12T
ASSAY TEXT: relative viability (nuclei count vs DMSO), 5 days (fraction); higher = more cells survive
APPLIED CONDITIONS: first compound 0.01581 µM
Output spec: single numeric token, no unit.

{"COMPOUND": "Nc1ccn([C@@H]2O[C@H](CO)[C@@H](O)[C@@H]2O)c(=O)n1 [Cytarabine] + CS(=O)(=O)CCNCc1ccc(-c2ccc3ncnc(Nc4ccc(OCc5cccc(F)c5)c(Cl)c4)c3c2)o1 [Lapatinib] (partner 2 µM)", "relative viability": 0.629}

Now for a further compound.
Tell me its relative viability given COc1cc2nccc(Oc3ccc(NC(=O)Nc4cc(C)on4)c(Cl)c3)c2cc1OC [Tivozanib] + CS(=O)(=O)N1CCN(Cc2cc3nc(-c4cccc5[nH]ncc45)nc(N4CCOCC4)c3s2)CC1 [Pictilisib] (partner 1 µM) as the entry. 0.445

* * *

Tested on: COR-L 105
ASSAY TEXT: relative viability (nuclei count vs DMSO), 5 days (fraction); higher = more cells survive
APPLIED CONDITIONS: first compound 0.000632 µM
Let's look at some compounds and their measured relative viability.

{"COMPOUND": "CC(=O)O[C@@]12CO[C@@H]1C[C@H](O)[C@@]1(C)C(=O)[C@H](O)C3=C(C)[C@@H](OC(=O)[C@H](O)[C@@H](NC(=O)OC(C)(C)C)c4ccccc4)C[C@@](O)([C@@H](OC(=O)c4ccccc4)[C@H]21)C3(C)C [Docetaxel] + O=C(CCCCCCC(=O)Nc1ccccc1)NO [Vorinostat] (partner 1 µM)", "MEASURED": 0.747}
{"COMPOUND": "CC(=O)O[C@@]12CO[C@@H]1C[C@H](O)[C@@]1(C)C(=O)[C@H](O)C3=C(C)[C@@H](OC(=O)[C@H](O)[C@@H](NC(=O)OC(C)(C)C)c4ccccc4)C[C@@](O)([C@@H](OC(=O)c4ccccc4)[C@H]21)C3(C)C [Docetaxel] + Cc1nc(Nc2ncc(C(=O)Nc3c(C)cccc3Cl)s2)cc(N2CCN(CCO)CC2)n1 [Dasatinib] (partner 0.075 µM)", "MEASURED": 0.288}
{"COMPOUND": "CC(=O)O[C@@]12CO[C@@H]1C[C@H](O)[C@@]1(C)C(=O)[C@H](O)C3=C(C)[C@@H](OC(=O)[C@H](O)[C@@H](NC(=O)OC(C)(C)C)c4ccccc4)C[C@@](O)([C@@H](OC(=O)c4ccccc4)[C@H]21)C3(C)C [Docetaxel] + CC1(C)CCC(c2ccc(Cl)cc2)=C(CN2CCN(c3ccc(C(=O)NS(=O)(=O)c4ccc(N[C@H](CCN5CCOCC5)CSc5ccccc5)c(S(=O)(=O)C(F)(F)F)c4)cc3)CC2)C1 [Navitoclax] (partner 0.5 µM)", "MEASURED": 0.715}

For the compound CC(=O)O[C@@]12CO[C@@H]1C[C@H](O)[C@@]1(C)C(=O)[C@H](O)C3=C(C)[C@@H](OC(=O)[C@H](O)[C@@H](NC(=O)OC(C)(C)C)c4ccccc4)C[C@@](O)([C@@H](OC(=O)c4ccccc4)[C@H]21)C3(C)C [Docetaxel] + CC(=O)c1c(C)c2cnc(Nc3ccc(N4CCNCC4)cn3)nc2n(C2CCCC2)c1=O [Palbociclib] (partner 0.5 µM) , report relative viability. 0.403

Taken from the supplement of paper PMC10307832.
